- TEST_TARGET: CHIP (Homo sapiens)
- Construct: N-term truncated CHIP (also known as STUB1, Uniprot ID: Q9UNE7, residues 23-303); made in house; host or cells: E. coli BL21 CodonPlus
- Sequence (Q9UNE7 23-303): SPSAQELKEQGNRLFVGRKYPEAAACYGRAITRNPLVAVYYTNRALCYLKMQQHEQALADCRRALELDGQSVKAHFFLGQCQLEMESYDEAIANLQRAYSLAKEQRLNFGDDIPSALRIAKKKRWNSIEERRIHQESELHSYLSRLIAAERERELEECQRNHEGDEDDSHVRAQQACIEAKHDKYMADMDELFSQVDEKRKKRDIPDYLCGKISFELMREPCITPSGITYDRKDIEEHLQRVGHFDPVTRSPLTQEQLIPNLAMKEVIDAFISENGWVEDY
- PROCEDURE_DETAILS: Naive Library Presenter Screening (phage, NGS), CHIP
- Format: binding
- APPLIED_CONDITIONS: CHIP target concentration 1000 nM, second column
Numbered stars: 1 amine (or outer) side, 2 acyl side, 3 side chain; on linkers, the order of the positions; unused ones are H or OH. Bridge positions count the residues as written; N and C are the ends. Ends that are not written are not given here. Phenylene(1,4-NHCOCH2)2 = O=C(C[*:1])Nc1ccc(NC(=O)C[*:2])cc1
PROPERTY: interaction data at Target Concentration 1000

SEQUENCE_CODE | ASSAY_VALUE
ICYNARLECE (linker 2-9 via Phenylene(1,4-NHCOCH2)2 (inferred)) | 20
PCYSAWIVCSD (linker 2-9 via Phenylene(1,4-NHCOCH2)2 (inferred)) | 468
ICYSAWLECE (linker 2-9 via Phenylene(1,4-NHCOCH2)2 (inferred)) | 28

I would be grateful if you could share the reported interaction data at Target Concentration 1000 for ICWAAWVSCS (linker 2-9 via Phenylene(1,4-NHCOCH2)2 (inferred)) .
17

Next up: PCWSAWLACEL (linker 2-9 via Phenylene(1,4-NHCOCH2)2 (inferred))
206

Proceed to PMCSDAWLFCE (linker 3-10 via Phenylene(1,4-NHCOCH2)2 (inferred))
57

* * *

# maps each entry to its phage screen NGS read-out at Target Concentration 100
- TEST_TARGET: RNF31 UBA domain (Homo sapiens, UniProt Q96EP0)
- Construct: RNF31 UBA domain protein (residues 480-639) with N-terminal Thioredoxin-TEV-6×his-yBBr-3C tags; Thioredoxin (N, cleaved yes); made in house; host or cells: E. coli BL21 (DE3) pLysS
- Sequence (Q96EP0 480-639): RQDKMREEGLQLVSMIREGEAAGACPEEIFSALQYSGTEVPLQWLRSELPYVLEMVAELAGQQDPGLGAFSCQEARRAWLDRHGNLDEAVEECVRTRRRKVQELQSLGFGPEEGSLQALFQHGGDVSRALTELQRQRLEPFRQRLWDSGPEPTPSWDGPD
- PROCEDURE_DETAILS: Phage Library Screening with NGS, RNF31 UBA domain
- Format: binding
- APPLIED_CONDITIONS: Target Concentration 100; no competitor
// return just the number, without any unit appended

Answered examples (2):
SEQUENCE_CODE | ASSAY_VALUE
DPAFSTCVYAAVFCQNT | 1
DPARYHCEAAAAWCELL | 0

Continue with the next sequence.
Please give the measured phage screen NGS read-out at Target Concentration 100 for this sequence: DPADLLCHMAAQNCLYR
0
